All figures here come from paper PMC12802951.

Provide the recorded IC50 for the entries that follow.
- testSystem: PBP4 (Pseudomonas aeruginosa, UniProt Q9HZG1)
- Construct: gene PA3047; native full-length protein in intact P. aeruginosa PAO1 cells, Bocillin-FL labelled
- Sequence (Q9HZG1 entry or part of it): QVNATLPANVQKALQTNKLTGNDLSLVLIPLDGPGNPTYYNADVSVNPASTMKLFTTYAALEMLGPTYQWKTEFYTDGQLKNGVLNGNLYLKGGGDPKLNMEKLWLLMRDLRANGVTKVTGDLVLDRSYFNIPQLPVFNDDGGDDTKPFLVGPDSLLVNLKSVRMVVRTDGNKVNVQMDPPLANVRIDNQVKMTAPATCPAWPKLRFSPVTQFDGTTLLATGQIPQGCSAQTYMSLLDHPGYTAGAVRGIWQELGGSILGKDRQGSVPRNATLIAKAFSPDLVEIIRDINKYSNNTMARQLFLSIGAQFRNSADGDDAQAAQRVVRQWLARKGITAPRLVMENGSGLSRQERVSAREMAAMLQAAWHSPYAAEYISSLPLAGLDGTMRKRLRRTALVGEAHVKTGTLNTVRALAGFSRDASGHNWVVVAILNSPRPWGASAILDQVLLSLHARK
- methodSummary: Bocillin-FL competition in whole cells
- Type: cell-based
- measurementParameters: read-out: Drug mg/L^a / ETP / CAZ; intact PAO1 cells, 30 min incubation; covalent
Answers are plain numbers, in nM.

givensmiles=CC(C)(O/N=C(\C(=O)N[C@@H]1C(=O)N2C(C(=O)[O-])=C(C[n+]3ccccc3)CS[C@H]12)c1csc(N)n1)C(=O)O measurementname=IC50 datavalue=585

Then this compound:
Exercise: Give recorded IC50. C[C@@H](O)[C@H]1C(=O)N2C(C(=O)O)=C(S[C@@H]3CN[C@H](C(=O)Nc4cccc(C(=O)O)c4)C3)[C@H](C)[C@H]12
Solution: 105
